Where these numbers come from: ChEMBL document CHEMBL1157539

# Test system: Plasmodium falciparum
# procedure details: GSK_TCMDC: Inhibition of Plasmodium falciparum 3D7 in whole red blood cells, using parasite LDH activity as an index of growth. Test compounds present at 2uM
# Assay type: functional
property label: Inhibition (%)
Give bare numbers, in %.

Before answering, review these 3 worked examples.
CNC(=O)/C=C/c1cc(NC(=O)Nc2cc(C)nc3c(F)cccc23)ccc1OC = 98
CCN(CC)CCNC(=O)c1ccc(N/C=C2\C(=O)Nc3ccc(S(=O)(=O)Cc4c(Cl)cccc4Cl)cc32)cc1 = 100
CC(C)CC(C)NC(=O)C1Cc2c([nH]c3cc(Cl)ccc23)C2(CCN(CCc3ccccc3)CC2)N1 (stereo not drawn) = 95

For each listed entry, give its Inhibition.
1. N#Cc1ccc(CN2CCC(Oc3ccc(NC(=O)c4ccco4)cc3Cl)CC2)cc1.O=C(O)C(F)(F)F
2. COc1ccc2nccc([C@@H](O)CN3CCC(NC(=O)CCC(=O)c4cc(C(C)(C)C)ccc4OC)CC3)c2c1
3. Cc1cc(-c2cccc(CNC3CCN(C)CC3)c2)ccc1S(=O)(=O)NC1CCC1.O=C(O)C(F)(F)F
4. COc1cc2nccc(Nc3ccc(NC(=O)c4ccc(C)cc4)c(O)c3)c2cc1OC.Cl

[95, 94, 100, 100]

For each listed entry, give its Inhibition.
1. CCN(CC)C(=S)N/N=C1/C(=O)Nc2c(C)cccc21
2. CC(C)CN1CCN(c2nc(C#N)c3c(c2C(=S)NC2CCCCC2)CC(C)(C)OC3)CC1
3. CN1CCN(CCCN(Cc2cccc(-c3cccc(CNCCc4ccccc4)c3)c2)C(=O)Nc2ccccc2)CC1.O=C(O)C(F)(F)F

[94, 100, 97]

For each listed entry, give its Inhibition.
1. CN(CCc1ccccn1)Cc1ccc(-c2ccc(-c3nc4ccccc4[nH]3)s2)cc1
2. Nc1nccc(-c2ccc3c(-c4cccc(F)c4)cnc(N)c3c2)n1
3. Cl.Oc1ccc2ccccc2c1CNC1CCCCCC1
4. CC(Cc1ccc(OCCN2CCN(c3cccc(Cl)c3)CC2)cc1)NCC(O)c1cccc(Cl)c1.Cl (stereo not drawn)
5. COc1ccc(O)c(Cc2cnc3nc(N)nc(N)c3c2C)c1.O=C(O)C(F)(F)F
6. Cn1cnc2c(Nc3ccncc3)nc(-c3ccc4ccccc4c3)nc21

100
93
83
93
94
96

For each listed entry, give its Inhibition.
1. CC(Oc1c(C2CCN(CCCCNC(=O)c3ccc(-c4ccc(C#N)cc4)cc3)CC2)ccc2c1CCCC2)C(N)=O (stereo not drawn)
2. O=[N+]([O-])c1cc(C(c2ccc(O)c([N+](=O)[O-])c2)C(Cl)(Cl)Cl)ccc1O
3. Cl.NOCCCCOc1ccc(Cl)cc1
4. Br.Cc1ccnc(Nc2nc(-c3ccccn3)cs2)c1
5. Cc1cc(OCCCN2CCC(NS(=O)(=O)c3ccc(C(F)(F)F)cc3)CC2)c2ccccc2n1

1: 100; 2: 93; 3: 98; 4: 100; 5: 95

###

# Test system: Plasmodium falciparum
# procedure details: GSK_TCMDC: Inhibition of Plasmodium falciparum 3D7 in whole red blood cells, using parasite LDH activity as an index of growth. Test compounds present at 2uM
# Type: functional
property label: Inhibition (%)
Give bare numbers, in %.

Before answering, review these 5 worked examples.
COc1ccc(CNCC(C)(C)c2nc(-c3ccc(Cl)c(O)c3)c(-c3ccncc3)[nH]2)cc1.Cl = 100
O=C(O)C(F)(F)F.c1ccc(-c2ccc(CNCc3ccc(-c4cccc(-c5nc6ccccc6[nH]5)c4)cc3)s2)nc1 = 98
O=C(O)C(F)(F)F.Oc1ccc(CCNc2nc(NCCCOc3cccc(-c4ccccc4)c3)nc(N3CCNCC3)n2)cc1 = 89
COc1ccc(Nc2nc(NCc3ccc(-n4ccnc4)cc3)cc(-c3ccc(OC)cc3)n2)cc1 = 96
COc1ccc(CCNCCCCCCNCCc2cccc([N+](=O)[O-])c2)cc1OC.Cl = 93

For each listed entry, give its Inhibition.
1. COc1ccc2nccc(N3CCCN(CCNS(=O)(=O)c4ccc5c(c4)NC(=O)CS5)CC3)c2n1.Cl
2. Cc1ccc(Nc2c3ccccc3nc3ccc(C)cc23)cc1

1: 97; 2: 88

For each listed entry, give its Inhibition.
1. Cl.O=c1cc(NCCCNCc2sc(Br)nc2Br)[nH]c2ccccc12
2. Cl.N=C(NCCCCC1CCCCC1)c1cccc(C(=N)NCCCCC2CCCCC2)n1

1: 92; 2: 100
